- assay_target: T1, canine CD20 ECD2 peptide (canine)
- T1 peptide: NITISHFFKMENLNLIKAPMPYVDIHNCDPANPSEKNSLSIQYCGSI
- experimental_protocol: ELISA on canine CD20 ECD2 peptide

binder	binding result
1E4-cIgGB with G34 to L substitution in VL (antibody, V domains shown, Whole antibody (heavy plus light chains) made 'using the above procedures') VH: EVQLVESGGGLVKPGGSLKLSCAASGFTFSDYGMLWVRQAPEKGLEWIAYISSGSSTIYYADRVKGRFTISRDNAKNTLFLQMTSLRSEDTAMYYCSTGTFAYWGQGTPVTVSS VL: DVVMTQNPLSLPVSLGDQASISCRSSQSLIYNNLNTYLHWYRQKPGQSPKLLIYKVSNRFSGVPDRFSGSGSGTDFTLKISRVEAEDLGVYFCSQSTHVPFTFGSGTKLEIKR	binds
1E4-cIgGB with G34 to V substitution in VL (antibody, V domains shown, Whole antibody (heavy plus light chains) made 'using the above procedures') VH: EVQLVESGGGLVKPGGSLKLSCAASGFTFSDYGMLWVRQAPEKGLEWIAYISSGSSTIYYADRVKGRFTISRDNAKNTLFLQMTSLRSEDTAMYYCSTGTFAYWGQGTPVTVSS VL: DVVMTQNPLSLPVSLGDQASISCRSSQSLIYNNVNTYLHWYRQKPGQSPKLLIYKVSNRFSGVPDRFSGSGSGTDFTLKISRVEAEDLGVYFCSQSTHVPFTFGSGTKLEIKR	binds
1E4-cIgGB with G34 to I substitution in VL (antibody, V domains shown, Whole antibody (heavy plus light chains) made 'using the above procedures') VH: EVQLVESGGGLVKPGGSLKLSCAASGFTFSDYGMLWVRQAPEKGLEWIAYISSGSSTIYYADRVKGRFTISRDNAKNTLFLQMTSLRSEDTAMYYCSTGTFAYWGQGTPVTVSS VL: DVVMTQNPLSLPVSLGDQASISCRSSQSLIYNNINTYLHWYRQKPGQSPKLLIYKVSNRFSGVPDRFSGSGSGTDFTLKISRVEAEDLGVYFCSQSTHVPFTFGSGTKLEIKR	binds
